Target: WT IDH1 (Homo sapiens)
Sequence (O75874 whole entry): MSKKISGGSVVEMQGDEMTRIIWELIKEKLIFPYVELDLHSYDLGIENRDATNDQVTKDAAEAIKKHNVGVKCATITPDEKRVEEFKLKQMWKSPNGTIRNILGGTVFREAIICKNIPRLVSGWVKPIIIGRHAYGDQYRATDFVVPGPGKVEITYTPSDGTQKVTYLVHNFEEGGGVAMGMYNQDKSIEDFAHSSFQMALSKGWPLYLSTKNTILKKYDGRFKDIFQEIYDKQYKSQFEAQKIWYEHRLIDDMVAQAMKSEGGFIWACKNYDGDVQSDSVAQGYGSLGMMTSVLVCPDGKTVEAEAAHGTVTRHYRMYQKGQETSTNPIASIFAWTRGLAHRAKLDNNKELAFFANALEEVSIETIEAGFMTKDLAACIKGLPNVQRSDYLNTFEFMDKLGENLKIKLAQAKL
pKi: −log10 of the molar value.
experimental.endpoint: pKi

Input line: Send back WT IDH1 (Homo sapiens) pKi of O=c1cc(O)cc(Cc2ccccc2)n1O only.
Output line: < 4.52

###

Target: IDH1(R132H) (Homo sapiens, UniProt O75874, R132H)
Sequence (O75874 whole entry R132H): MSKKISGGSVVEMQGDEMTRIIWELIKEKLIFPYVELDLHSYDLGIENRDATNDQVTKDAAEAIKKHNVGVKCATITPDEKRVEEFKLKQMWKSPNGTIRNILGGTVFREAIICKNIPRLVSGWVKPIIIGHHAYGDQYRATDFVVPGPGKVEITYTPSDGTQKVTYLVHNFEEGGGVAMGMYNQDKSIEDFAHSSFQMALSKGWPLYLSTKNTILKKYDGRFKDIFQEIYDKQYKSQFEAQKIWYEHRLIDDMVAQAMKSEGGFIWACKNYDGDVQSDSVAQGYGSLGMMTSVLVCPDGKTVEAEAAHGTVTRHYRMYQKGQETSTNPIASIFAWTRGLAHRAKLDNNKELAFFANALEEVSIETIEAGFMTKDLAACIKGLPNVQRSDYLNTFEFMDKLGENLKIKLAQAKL
experimental.endpoint: inhibitory activity against IDH1(R132H), in words

Guide cases for inhibitory activity against IDH1(R132H), in words, answers given:
O=c1cccc(-c2ccccc2)n1O: inactive
O=c1ccn(O)c(=O)n1Cc1ccccc1: lack of activity
Cc1cc(Cc2ccccc2)oc(=O)c1: inactive
Cc1cc(Cc2ccccc2)oc(=S)c1: inactive
Cc1cc(C2CCCCC2)n(O)c(=O)c1 [Compound 9, Ciclopirox, reference compound]: inactive

Input line: Report inhibitory activity against IDH1(R132H), in words for O=c1ccc(Cc2ccccc2)c[nH]1
Output line: lack of activity

Input line: Dear colleague, please send me the reported inhibitory activity against IDH1(R132H), in words for Cc1cc(C)n(O)c(=O)c1 when you can.
Output line: inactive

Input line: For the molecule O=c1n(O)ccn1Cc1ccccc1 , give its reported inhibitory activity against IDH1(R132H), in words.
Output line: lack of activity

Input line: Specify reported inhibitory activity against IDH1(R132H), in words for the molecule shown: CC(c1ccccc1)c1cccc(=O)n1O (stereo not drawn)
Output line: inactive

###

Target: IDH1(R132H) (Homo sapiens, UniProt O75874, R132H)
Conditions: relative to compound 2
The following compounds are listed with their measured fold less active than compound 2 against IDH1(R132H) values.

Input line: For the compound Cc1cc(COc2ccccc2)n(O)c(=O)c1 , report fold less active than compound 2 against IDH1(R132H).
Output line: ~4 fold

Input line: For the compound COc1ccccc1Cc1cc(C)cc(=O)n1O , give its measured fold less active than compound 2 against IDH1(R132H) value.
Output line: ~2 fold

Input line: Return reported fold less active than compound 2 against IDH1(R132H). Input compound: Cc1cc(Cc2cccc(F)c2)n(O)c(=O)c1
Output line: ~10 fold

Input line: Return value of fold less active than compound 2 against IDH1(R132H) for input Cc1cc(Cc2c(F)c(F)c(F)c(F)c2F)n(O)c(=O)c1 , no commentary.
Output line: ~10 fold

Input line: Tell me its fold less active than compound 2 against IDH1(R132H) given Cc1ccn(O)c(=O)c1Cc1ccccc1 as the entry.
Output line: 50 fold

Input line: Complete the entry with fold less active than compound 2 against IDH1(R132H) for Cc1cc(Cc2ccccc2)n(N)c(=O)c1
Output line: 20 fold

Input line: Complete the entry with fold less active than compound 2 against IDH1(R132H) for Cc1cc(Cc2ccccc2O)n(O)c(=O)c1
Output line: ~2 fold
